# Target: UniProtKB Q5JUK3
# Sequence (Q5JUK3 1-1230): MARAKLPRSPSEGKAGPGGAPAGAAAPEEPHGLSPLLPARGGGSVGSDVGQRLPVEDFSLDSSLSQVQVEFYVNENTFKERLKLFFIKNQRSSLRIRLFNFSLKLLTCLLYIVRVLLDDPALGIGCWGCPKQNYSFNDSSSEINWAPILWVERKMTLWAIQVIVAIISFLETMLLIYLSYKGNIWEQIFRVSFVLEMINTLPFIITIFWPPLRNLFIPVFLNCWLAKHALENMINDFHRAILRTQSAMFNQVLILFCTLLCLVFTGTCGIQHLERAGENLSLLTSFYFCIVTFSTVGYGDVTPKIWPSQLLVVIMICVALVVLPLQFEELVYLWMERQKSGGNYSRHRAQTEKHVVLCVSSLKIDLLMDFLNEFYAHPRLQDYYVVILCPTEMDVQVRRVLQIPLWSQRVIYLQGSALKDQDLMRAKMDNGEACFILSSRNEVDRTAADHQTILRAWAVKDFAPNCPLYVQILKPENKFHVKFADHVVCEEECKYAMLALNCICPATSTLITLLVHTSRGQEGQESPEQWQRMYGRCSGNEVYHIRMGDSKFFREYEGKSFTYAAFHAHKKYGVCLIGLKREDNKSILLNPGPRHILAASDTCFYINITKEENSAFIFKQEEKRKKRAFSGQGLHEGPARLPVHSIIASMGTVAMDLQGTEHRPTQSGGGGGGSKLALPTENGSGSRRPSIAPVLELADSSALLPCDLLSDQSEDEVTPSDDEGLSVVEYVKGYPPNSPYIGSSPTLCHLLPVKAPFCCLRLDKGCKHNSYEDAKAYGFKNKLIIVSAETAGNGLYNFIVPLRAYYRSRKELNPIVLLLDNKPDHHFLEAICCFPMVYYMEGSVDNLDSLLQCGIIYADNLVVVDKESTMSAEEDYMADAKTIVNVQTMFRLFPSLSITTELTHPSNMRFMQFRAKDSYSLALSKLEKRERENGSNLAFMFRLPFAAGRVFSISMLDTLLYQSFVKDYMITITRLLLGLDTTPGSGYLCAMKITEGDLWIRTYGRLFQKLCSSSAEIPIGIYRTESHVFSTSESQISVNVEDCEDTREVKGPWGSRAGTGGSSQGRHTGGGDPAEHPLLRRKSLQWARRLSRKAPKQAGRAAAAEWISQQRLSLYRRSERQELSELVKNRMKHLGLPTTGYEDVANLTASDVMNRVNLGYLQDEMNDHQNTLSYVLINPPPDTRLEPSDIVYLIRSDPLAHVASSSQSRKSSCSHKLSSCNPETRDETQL
# Test Description: KCNT1 patch clamp assay (SyncroPatch 384PE automated patch clamp)
# Measurement Parameters: tetracycline inducible HEK-TREX cell line; perforated patch; step from −80 mV to 0 mV; room temperature; read-out: KCNT1-WT IC50
Measured Endpoint: IC50

Record excerpt, results attached:
C[C@H](NC(=O)c1cc(C(F)F)nn1C)c1nc(-c2ccnc(C3CC3)c2)no1
≤ 1 µM
Cc1nn(-c2ccc(F)cc2)cc1C(=O)N[C@@H](C)c1nc(-c2cccc(F)c2)no1
≤ 1 µM
CC[C@H](NC(=O)c1cc(C(F)(F)F)nn1CC(F)F)c1nc(-c2cccc(F)c2)no1
≤ 1 µM
C[C@H](NC(=O)c1cc(C(F)F)nn1C)c1nc(-c2ccnc(C(F)(F)F)c2)no1
≤ 1 µM
C[C@H](NC(=O)c1cc(C(F)(F)F)nn1C)c1nc(-c2ccnc(C3(C)CC3)c2)no1
≤ 1 µM

[Q] Give the observed IC50 of COC[C@H](NC(=O)c1cc(C(F)(F)F)nn1C)c1nc(-c2cccc(C)c2)no1 (single isomer, unassigned) for UniProtKB Q5JUK3.
[A] ≤ 1 µM

[Q] Give the observed IC50 of C[C@H](NC(=O)c1cc(C(F)(F)F)nn1C)c1nc(-c2ccnc(C3CCC3)c2)no1 (single isomer, unassigned) for UniProtKB Q5JUK3.
[A] ≤ 1 µM

[Q] Give the observed IC50 of Cc1nn(C(C)C)cc1C(=O)N[C@@H](C)c1nc(-c2cccc(C#N)c2)no1 for UniProtKB Q5JUK3.
[A] ≥ 20 µM

[Q] Give the observed IC50 of Cc1cccc(-c2noc([C@@H](C)NC(=O)c3cn(C(C)C)nc3C)n2)c1 for UniProtKB Q5JUK3.
[A] ≥ 20 µM
